Measured Lambsquarters plant response rating by item
tested on: lambsquarters; assay: Test C pre-/postemergence test; assay type: in vivo, Chenopodium album; details: preemergence, 125 g ai/ha; scale 0 (no effect) to 100 (complete control)
No unit in the answer, only the number.

Take a look at these entries with their results.
compound="Cc1cc[n+]([O-])c(S(=O)(=O)C(C)c2c(C(F)(F)F)nn(C)c2Cl)c1 (racemic) [Compound 14]" test_value=100
compound="Cn1nc(C(F)(F)F)c(C[S+]([O-])c2cccc[n+]2[O-])c1OC(F)F (stereo not shown) [Compound 3]" test_value=100
compound="Cn1nc(C(F)(F)F)c(CS(=O)(=O)c2cccc[n+]2[O-])c1OC(F)F [Compound 4]" test_value=80

Turning now to a further compound:
Specify measured Lambsquarters plant response rating for Cn1nc(C(F)(F)F)c(CS(=O)(=O)c2cccc[n+]2[O-])c1Cl [Compound 9] .
80

###

Test system: green foxtail
Test: Test C pre-/postemergence test
Type: in vivo, Setaria viridis
Conditions: 62 g ai/ha, Preemergence; scale 0 to 100
Excerpt: Seeds of plant species selected from blackgrass (Alopecurus myosuroides), downy brome (Bromus tectorum), green foxtail (Setaria viridis), Italian ryegrass (Lolium multiflorum), wheat (Triticum aestivum), wild oat (Avena fatua), catchweed bedstraw (Galium aparine), Russian thistle (Salsola kali), […] […]
Measured Foxtail, Green plant response rating by item

Take a look at these entries with their results.
compound="Cn1nc(C(F)(F)F)c(C[S+]([O-])c2ccc(F)c[n+]2[O-])c1OCC(F)(F)F (stereo not shown)" system="green foxtail" test_value=100
compound="Cn1nc(C(F)(F)F)c(C[S+]([O-])c2cccc[n+]2[O-])c1OCC(F)F (stereo not shown)" system="green foxtail" test_value=98
compound=Cc1cc[n+]([O-])c(S(=O)(=O)Cc2c(C(F)(F)F)nn(C)c2OCC(F)(F)F)c1 system="green foxtail" test_value=100

Specify measured Foxtail, Green plant response rating for Cc1cc([S+]([O-])Cc2c(C(F)(F)F)nn(C)c2OCC(F)(F)F)[n+]([O-])cc1Cl (stereo not shown) .
100

Specify measured Foxtail, Green plant response rating for CCn1nc(C(F)(F)F)c(CS(=O)(=O)c2cc(C)cc[n+]2[O-])c1OCC(F)(F)F .
100

Specify measured Foxtail, Green plant response rating for CC(c1c(C(F)(F)F)nn(C)c1OC(F)F)S(=O)(=O)c1cc(C(C)(C)C)cc[n+]1[O-] (racemic) .
85

Specify measured Foxtail, Green plant response rating for CC(c1c(C(F)(F)F)nn(CC(F)(F)F)c1Cl)[S+]([O-])c1cccc[n+]1[O-] (stereo not shown) .
98

###

system: redroot pigweed; assay: Test A pre-/postemergence greenhouse test; assay type: in vivo, Amaranthus retroflexus; conditions: Postemergence, 125 g ai/ha; 0 to 100 scale, 0 is no effect, 100 is complete control
Note to self: Pigweed plant response rating under 20 means rule met, ties and anything higher get rule not met.

Below, 5 compounds whose answers are already recorded.
compound="Cc1cc[n+]([O-])c([S+]([O-])Cc2c(C(F)(F)F)nn(C)c2OC(F)F)c1 (centres unmarked)" label_class="rule not met"
compound="Cn1nc(C(F)(F)F)c(C[S+]([O-])c2cc(Br)cc[n+]2[O-])c1Cl (racemic)" label_class="rule not met"
compound="Cc1cc[n+]([O-])c(S(=O)(=O)C(C)c2c(C(F)(F)F)nn(C)c2Cl)c1 (racemic)" label_class="rule met"
compound="Cn1nc(C(F)(F)F)c(C(Cl)S(=O)(=O)c2cccc[n+]2[O-])c1OCC(F)(F)F (racemic)" label_class="rule met"
compound=Cn1nc(C(F)(F)F)c(CS(=O)(=O)c2cccc[n+]2[O-])c1OC(F)F label_class="rule not met"

Now look at this one.
I'd appreciate it if you could check whether Cc1cc[n+]([O-])c(S(=O)(=O)Cc2c(C(F)(F)F)nn(C)c2OCC(F)(F)F)c1 has Pigweed plant response rating smaller than 20.
rule not met

###

system: giant foxtail; test: Test A pre-/postemergence greenhouse test; format: in vivo, Setaria faberi; settings: Preemergence, 500 g ai/ha; 0 to 100 scale where 0 is no effect and 100 is complete control
Measured Plant response rating, Foxtail, Giant by item
No unit in the answer, only the number.

Take a look at these entries with their results.
compound=Cn1nc(C(F)(F)F)c(CS(=O)(=O)c2ccc(F)c[n+]2[O-])c1Cl system="giant foxtail" test_value=80
compound=Cn1nc(C(F)(F)F)c(CS(=O)(=O)c2ccc(Cl)c[n+]2[O-])c1OCC(F)F system="giant foxtail" test_value=90
compound=Cc1cc[n+]([O-])c(S(=O)(=O)Cc2c(C(F)(F)F)nn(C)c2Cl)c1 system="giant foxtail" test_value=100
compound="Cn1nc(C(F)(F)F)c(C[S+]([O-])c2c(F)ccc[n+]2[O-])c1Cl (stereo not drawn)" system="giant foxtail" test_value=90
compound="Cn1nc(C(F)(F)F)c(C[S+]([O-])c2ccc(F)c[n+]2[O-])c1Cl (stereo not drawn)" system="giant foxtail" test_value=90

State the measured Plant response rating, Foxtail, Giant (giant foxtail) of Cn1nc(C(F)(F)F)c(CS(=O)(=O)c2ccc(Cl)c[n+]2[O-])c1Cl
100

###

tested on: umbrella sedge; assay: Test C flooded paddy test; assay type: in vivo, Cyperus difformis; settings: Flood, 62 g ai/ha; scale 0 to 100, 0 no effect, 100 complete control; 13 to 15 days
Measured Plant response rating, Sedge, Umbrella by item
No unit in the answer, only the number.

Take a look at these entries with their results.
molecule=Cn1nc(C(F)(F)F)c(CS(=O)(=O)c2cc(Br)cc[n+]2[O-])c1Cl measurement_type="Plant response rating, Sedge, Umbrella" test_value=0
molecule="CC(c1c(C(F)(F)F)nn(C)c1Cl)S(=O)(=O)c1ccc(Cl)c[n+]1[O-] (racemic)" measurement_type="Plant response rating, Sedge, Umbrella" test_value=45
molecule="CC(c1c(C(F)(F)F)nn(C)c1Cl)S(=O)(=O)c1cccc[n+]1[O-] (stereo not shown)" measurement_type="Plant response rating, Sedge, Umbrella" test_value=80

Specify measured Plant response rating, Sedge, Umbrella for Cn1nc(C(F)(F)F)c(C[S+]([O-])c2cc(C(F)(F)F)cc[n+]2[O-])c1Cl (racemic) .
85

###

Measured Plant response rating, Barnyardgrass by item
test system: barnyardgrass; assay: Test C flooded paddy test; assay type: in vivo, Echinochloa crus-galli; details: Flood, 31 g ai/ha; scale 0 to 100 (0 no effect, 100 complete control)
No unit in the answer, only the number.

Take a look at these entries with their results.
molecule="Cc1cc[n+]([O-])c(S(=O)(=O)C(Cl)c2c(C(F)(F)F)nn(CC(F)(F)F)c2Cl)c1 (stereo not shown) [Compound 56]" measurement_type="Plant response rating, Barnyardgrass" test_value=0
molecule="Cn1nc(C(F)(F)F)c(CS(=O)(=O)c2ccc(Br)c[n+]2[O-])c1OC(F)F [Compound 13]" measurement_type="Plant response rating, Barnyardgrass" test_value=0
molecule="Cc1cc[n+]([O-])c(S(=O)(=O)C(Cl)c2c(C(F)(F)F)nn(C)c2Cl)c1 (racemic) [Compound 22]" measurement_type="Plant response rating, Barnyardgrass" test_value=10

Turning now to a further molecule:
State the measured Plant response rating, Barnyardgrass (barnyardgrass) of Cc1cc[n+]([O-])c([S+]([O-])Cc2c(C(F)(F)F)nn(C)c2OCC(F)(F)F)c1 (racemic) [Compound 30]
0

###

test system: purple nutsedge; assay: Test F preemergence test; type: in vivo, Cyperus rotundus; details: 125 g ai/ha, preemergence, scale 0 to 100
Binary call on Purple Nutsedge plant response rating: true (1) from 80 upward, false (0) beneath that.

Below, 4 compounds whose answers are already recorded.
compound="Cc1cc[n+]([O-])c(S(=O)(=O)C(Cl)c2c(C(F)(F)F)nn(C)c2Cl)c1 (racemic)" label_class="false (0)"
compound=Cc1cc[n+]([O-])c(S(=O)(=O)Cc2c(C(F)(F)F)nn(C)c2OCC(F)(F)F)c1 label_class="true (1)"
compound=Cn1nc(C(F)(F)F)c(CS(=O)(=O)c2cccc[n+]2[O-])c1OCC(F)(F)F label_class="false (0)"
compound="CCn1nc(C(F)(F)F)c(C[S+]([O-])c2cc(C)cc[n+]2[O-])c1OCC(F)(F)F (racemic)" label_class="true (1)"

Now look at this one.
Check if Purple Nutsedge plant response rating >= 80 (inclusive). Item: Cn1nc(C(F)(F)F)c(C[S+]([O-])c2cccc[n+]2[O-])c1Cl (stereo not drawn)
false (0)

###

Measured Dayflower plant response rating by item
tested on: Virginia dayflower; assay: Test F preemergence test; assay type: in vivo, Commelina virginica; conditions: 62 g ai/ha, Preemergence; scale 0 to 100
No unit in the answer, only the number.

Take a look at these entries with their results.
compound="CC(c1c(C(F)(F)F)nn(C)c1OCC(F)(F)F)S(=O)(=O)c1cccc[n+]1[O-] (racemic)" system="Virginia dayflower" test_value=98
compound="Cc1cc[n+]([O-])c(S(=O)(=O)C(C)c2c(C(F)(F)F)nn(C)c2OC(F)F)c1 (stereo not shown)" system="Virginia dayflower" test_value=100
compound="Cn1nc(C(F)(F)C(F)(F)F)c(C[S+]([O-])c2cccc[n+]2[O-])c1OCC(F)(F)F (stereo not shown)" system="Virginia dayflower" test_value=50
compound="Cn1nc(C(F)(F)F)c(C[S+]([O-])c2cccc[n+]2[O-])c1Cl (stereo not shown)" system="Virginia dayflower" test_value=0
compound="Cc1cc[n+]([O-])c([S+]([O-])Cc2c(C(F)(F)F)nn(C)c2OCC(F)(F)F)c1 (racemic)" system="Virginia dayflower" test_value=90

Turning now to a further compound:
State the measured Dayflower plant response rating (Virginia dayflower) of Cc1cc[n+]([O-])c(S(=O)(=O)Cc2c(C(F)(F)F)nn(C)c2OC(F)F)c1
100

Ref: patent US20100298141A1
